Recorded values, source PubChem BioAssay (NCI).

- assay: NCI Yeast Anticancer Drug Screen. Data for the rad50 strain (AID 155);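 further: 0% = growth of vehicle-only cultures of the same strain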
- condition-summary: S. cerevisiae rad50 strain growth inhibition; at 5.0 µM (retest, dose inferred, filed as 0.5); hits give high values
- Procedure: Growth inhibition of yeast strains with defined genetic alterations is measured as a screen for potential anti-cancer activity. Selected strains with alterations in DNA damage repair or cell cycle control were exposed to compounds and growth inhibition was measured relative to vehicle treated controls. The strain used in this assay is rad50
This is part of a sample that, as a whole, favours compounds with a hit. Of some 79,000 tested, about 15% had one in any assay.
measurement-type: growth inhibition (%)
Numbers only, in %.

Consider the worked cases shown below.
molecule: COC(=O)C1=CCC[C@H]2C1(C)CCC(C)C21CC(c2ccoc2)OC1=O (some centres not stated)
measurement-type: growth inhibition
readout-value: -8
--
molecule: CC1(C)C(=O)N(CCCCCCN2C(=O)C(C)(C)c3ccccc32)c2ccccc21
measurement-type: growth inhibition
readout-value: 20
--
molecule: O=S(=O)(c1ccc(NC(=S)NCc2ccncc2)cc1)N1CCCCC1
measurement-type: growth inhibition
readout-value: -30
--
molecule: O=C(CNc1cccc([N+](=O)[O-])c1)Nn1c(-c2ccccc2)nc2ccccc2c1=O
measurement-type: growth inhibition
readout-value: 2
--
molecule: COc1ccccc1C(=O)[O][Sn]([c]1ccccc1)([c]1ccccc1)[c]1ccccc1
measurement-type: growth inhibition
readout-value: 100
--
molecule: ClCC1CSC2(CCCCC2)O1 (configuration not stated)
measurement-type: growth inhibition
readout-value: 16
--
molecule: COc1cccc2c1C(=O)c1c(O)c3c(c(O)c1C2=O)C[C@@](O)(C(=O)CO)C[C@@H]3OC1CC(N(C)C)C(O)C(C)O1 (some centres not stated)
measurement-type: growth inhibition
readout-value: 94
--
molecule: C#CCn1cnc2c(N)ncnc21
measurement-type: growth inhibition
readout-value: -1
--
molecule: CC(C)NCCCNc1nc(NCCCNC(C)C)c2nc(-c3ccccc3)c(-c3ccccc3)nc2n1
measurement-type: growth inhibition
readout-value: 4
--
molecule: COc1ccc(/C=C2\N=C(c3ccco3)OC2=O)cc1Br
measurement-type: growth inhibition
readout-value: 16

Please supply growth inhibition for each of the following items, keeping them in order.
1. Cc1cccc2ccc3cc(CC(=O)O)c4cccc(C)c4c3c12
2. O=C1C(=O)C(CCCO)(CCCO)CCCCCCCCC1(CCCO)CCCO
3. Brc1cc2c(c(Br)c1Br)C(Br)(Br)C(c1ccccc1)=N2
4. CCCCCCCCCCCc1ccn[nH]1
5. N#Cc1ccccc1[N+](=O)[O-]
6. BrCC1(CBr)COC1

1. 45
2. -9
3. 6
4. -7
5. 16
6. 4

====

Please provide measured growth inhibition for the entries that follow.
- assay: NCI Yeast Anticancer Drug Screen. Data for the sgs1 mgt1 strain (AID 161);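 further: 0% = growth of cultures given vehicle only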
- condition-summary: S. cerevisiae sgs1 mgt1 strain, at 50.0 µM, hits give high values
The panel holds about 79,000 compounds, 15% with a hit somewhere; the sample as a whole holds those more often.
Give bare numbers, in %.

As a guide, the following entries are already answered.
compound: CCCCCCCCCCCCCCCC(=O)NCC[N+](C)(CC)CC
unit-tag: %
growth inhibition: 72.2
//
compound: CC[n+]1cnc(N)c2c(-c3ccc(Cl)cc3)cn(-c3ccc(C)cc3)c21
unit-tag: %
growth inhibition: 97.9
//
compound: O=c1cc2cccccc-2cc1O
unit-tag: %
growth inhibition: 83.5
//
compound: CC(/C=C/C(O)=C1/C(=O)CNC1=O)=C\[C@@H](C)[C@H]1O[C@@]2(C)O[C@H](C(=O)[C@@H]3O[C@@]32C)[C@@H]1C
unit-tag: %
growth inhibition: 94.2

Parameter requested: growth inhibition. Apply to each item below.
1. CCN(CC)CC(O)c1ccnc2c(O)cccc12 (stereo not given)
2. COC(=O)c1nnn(-c2cc(Cl)ccc2Cl)c1C(=O)c1ccc(Cl)c(Cl)c1
3. Cc1c(C)c(C)c(C(=O)c2ccccc2C(=O)NCCSC(C)(C)C)c(C)c1C
4. Nc1ccc(SCCCc2c(N)nc(N)nc2N)cc1
5. CS(=O)c1cc(=O)c2ccccc2s1 (stereo not given)
6. COc1cccc2c1C(=O)c1c(O)c3c(c(O)c1C2=O)C[C@@](O)(C(=O)CO)C[C@@H]3OC1CC(N(C)C)C(O)C(C)O1 (stereo not given in full)

1. 71.7
2. 99
3. 83.3
4. 20.6
5. 99.3
6. 91.2

====

- assay: NCI Yeast Anticancer Drug Screen. Data for the sgs1 mgt1 strain (AID 161);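 further: 0% = growth of cultures given vehicle only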
- condition-summary: S. cerevisiae sgs1 mgt1 strain, at 50.0 µM (retest, dose inferred, filed as 5.0)
About 79,000 compounds went through this panel and 15% of them were active in at least one assay; those are over-represented in the sample as a whole. Active and inactive are the calls of the source. Cut-off read from the data, not from the text of the source: active = growth inhibition above about 70%; inactive = the rest.
Thanks in advance; please answer with one of these: y = active, n = inactive

compound: CCCCCCCCCCCCOP(=O)(N1CC1(C)C)N1CC1(C)C (stereo not given)
class-name: n
--
compound: Oc1ccc2c(c1O)/C(=C/C=NCC1(O)OCC(O)C(O)C1O)C=N2 (stereo not given)
class-name: n
--
compound: CC1CC2(C)ON=C(c3ccccc3)N2c2ccccc2S1 (stereo not given)
class-name: y
--
compound: O=S(=O)(Nc1ccccn1)c1ccc(N=Cc2c3ccccc3nc3cc(Cl)ccc23)cc1
class-name: n
--
compound: CCCCCCCCCCCC(=O)OCC1OC(OC)C(NC(=O)N(CCCl)N=O)C(O)C1O (stereo not given)
class-name: n
--
compound: O=C(CSc1nnc(Cc2ccccc2)o1)Nc1cccc(Cl)c1
class-name: y

Hi, sorry to bother you, what did the test record for CC(C)(Br)C(Br)C(=O)C(Br)C(C)(C)Br (stereo not given) ?
n

Call for entry `CCc1cc2c(cc1O)CC[C@@H]1[C@@H]2CC[C@]2(C)[C@@H](O)CC[C@@H]12` :
y

Hi, sorry to bother you, what did the test record for `O=C(O)c1ccc([N+](=O)[O-])cc1.[Ag]` ?
y

Which outcome was assigned to `CCCCCCCCCCCCCCCCCCOC(=O)Nc1ccc(C)c(NC(=O)OCCCCCCCCCCCCCCCCCC)c1` in this test?
n

====

Consider the following compounds; for each one, report its growth inhibition.
- assay: NCI Yeast Anticancer Drug Screen. Data for the rad50 strain (AID 155);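 further: 0% = growth of vehicle-only cultures of the same strain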
- condition-summary: S. cerevisiae rad50 strain growth inhibition; at 5.0 µM (retest, dose inferred, filed as 0.5); hits give high values
The panel holds about 79,000 compounds, 15% with a hit somewhere; the sample as a whole holds those more often.
Numbers only, in %.

compound: O=S1Nc2ccccc2S1 (stereo unspecified)
growth inhibition / %: 0
//
compound: CC(CN(C)C)C(=O)c1cn(C)c2ccccc12 (stereo unspecified)
growth inhibition / %: 1
//
compound: O=C(CC(O)(c1ccccc1)c1ccc(Cl)cc1)NC(=O)c1ccccc1O (stereo unspecified)
growth inhibition / %: 45
//
compound: CC(CN1CCOCC1)(CN1CCOCC1)[N+](=O)[O-]
growth inhibition / %: 10

Quick one: give me growth inhibition for each item below, same order please.
1. Oc1c(Br)cc(Br)cc1-c1ccccc1
2. COS(=O)c1cc(Cl)cc(Cl)c1OC(=O)CSSCC(=O)Oc1c(Cl)cc(Cl)cc1S(=O)OC (stereo unspecified)

1. 0
2. 87

====

- assay: NCI Yeast Anticancer Drug Screen. Data for the sgs1 mgt1 strain (AID 161);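 further: 0% = growth of cultures given vehicle only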
- condition-summary: S. cerevisiae sgs1 mgt1 strain, at 50.0 µM (retest, dose inferred, filed as 5.0), hits give high values
This is part of a sample that, as a whole, favours compounds with a hit. Of some 79,000 tested, about 15% had one in any assay.
So I've got a bunch of compounds here, and I need their growth inhibition values.
Answers are plain numbers, in %.

compound: N#CS/C(C(Cl)=C(Cl)Cl)=C(/Cl)[N+](=O)[O-]
unit-tag: %
readout-value: 99

compound: CCOC(=O)C(=O)C1CCCCC1=O (configuration not stated)
unit-tag: %
readout-value: 92

compound: Oc1[nH]c2ccccc2c1N=NC(=S)NCc1ccccn1
unit-tag: %
readout-value: 98

Would you mind giving growth inhibition for every compound in the list below?
1. Cc1c(N)nc(C(CC(N)=O)NCC(N)C(N)=O)nc1C(=O)NC(C(=O)NC(C)C(O)C(C)C(=O)NC(C(=O)NCCc1nc(-c2nc(C(=O)NCCCNCCCc3ccccn3)cs2)cs1)C(C)O)C(OC1OC(CO)C(O)C(O)C1OC1OC(CO)C(O)C(OC(N)=O)C1O)c1cnc[nH]1 (configuration not stated)
2. CCCCCCCCCCCCC1N=C(N)N2CCCC2=C1C(=O)OC (configuration not stated)

1. 99
2. 99

I'm hoping you can list growth inhibition for every compound here, please.
1. Clc1ccc(CSCCc2ccncc2)cc1Cl
2. CC(C)CCCC(C)C1CCC2C3CC=C4OC(=O)CCC4(C)C3CCC12C (configuration not stated)
3. S=c1sc2ccccc2n1CNc1ccccc1
4. C=C(C)C1CC2=C(O1)C(=O)c1ccccc1C2=O (configuration not stated)
5. C/C=C/C/S(=N\S(=O)(=O)c1ccc(C)cc1)c1ccccc1 (configuration not stated)
6. O=C(O)c1ccc2ccccc2c1C(=O)c1cccc2ccccc12
7. O=C1C=C(Cl)C(=O)C2=C1CCCC2
8. Nc1ccccc1-c1nc2c(ccc3ccccc32)[nH]1

97
93
53
99
97
21
98
-5

Parameters: items (list). Returns: growth inhibition for each item.
1. CCCCCCCCCCN
2. CCCCNC(=O)OCc1c(COC(=O)NCCCC)c(-c2ccc(Cl)c(Cl)c2)n2c1CCC2
3. O=C1C=C(c2ccccc2)S(=O)(=O)c2c(O)cccc21
4. CC(C)N1C(=O)c2ccccc2S1(Cl)c1ccccc1 (configuration not stated)
5. CCC[C@H]1[C@H](CCC)[C@@]2(OC(=O)C3=C2CCC=C3)[C@]12OC(=O)C1=C2CCC=C1
6. CC(CN1CCCCCCC1)C(c1ccccc1)c1ccccc1 (configuration not stated)
7. O=C1c2cccc(S(=O)(=O)O)c2C(=O)c2cccc([N+](=O)[O-])c21
8. CC(=O)C(C(C)=O)C1C=CC=CC=C1

1. 36
2. 99
3. 100
4. -3
5. 98
6. 98
7. 45
8. 90

What the record says about `CCC(=O)C(CC)(c1ccc(OC(C)=O)cc1)c1ccc(OC(C)=O)cc1` : growth inhibition is 75
